target: T1, IFN-αWA (human, UniProt P05015 24-189); assay: ProteOn SPR, cell supernatant;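 also: each binding measurement used just a single antigen concentration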
T1 construct: Recombinant, HEK293; also called IFN-α16
outcome-measure: Kd (nM)
Kindly provide the numeric value in nM only, without the unit symbol.

// query Return the recorded Kd value; entry: IFWM3396 (antibody, IgG1, V domains shown, mAb; IgG1/kappa said of the parent and of selected mAbs; also called IFWB3131) VH: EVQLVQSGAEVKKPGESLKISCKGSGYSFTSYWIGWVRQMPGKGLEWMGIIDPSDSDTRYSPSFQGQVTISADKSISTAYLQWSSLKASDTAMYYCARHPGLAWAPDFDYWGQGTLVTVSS VL: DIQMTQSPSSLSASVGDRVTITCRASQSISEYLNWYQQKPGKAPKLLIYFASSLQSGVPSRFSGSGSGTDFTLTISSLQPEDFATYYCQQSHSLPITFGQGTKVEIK
// result 0.068

// query Return the recorded Kd value; entry: IFWM3386 (antibody, IgG1, V domains shown, mAb; IgG1/kappa said of the parent and of selected mAbs; also called IFWB3121) VH: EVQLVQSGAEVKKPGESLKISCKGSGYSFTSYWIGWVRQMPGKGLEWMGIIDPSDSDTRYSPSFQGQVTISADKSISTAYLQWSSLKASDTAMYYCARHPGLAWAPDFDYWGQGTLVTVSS VL: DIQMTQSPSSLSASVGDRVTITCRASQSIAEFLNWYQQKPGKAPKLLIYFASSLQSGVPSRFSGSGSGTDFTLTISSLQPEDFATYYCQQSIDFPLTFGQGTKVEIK
// result 0.035

// query Return the recorded Kd value; entry: IFWM3389 (antibody, IgG1, V domains shown, mAb; IgG1/kappa said of the parent and of selected mAbs; also called IFWB3124) VH: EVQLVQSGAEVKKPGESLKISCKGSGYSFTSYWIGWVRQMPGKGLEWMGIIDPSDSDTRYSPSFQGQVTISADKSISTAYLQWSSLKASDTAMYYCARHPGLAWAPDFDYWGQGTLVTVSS VL: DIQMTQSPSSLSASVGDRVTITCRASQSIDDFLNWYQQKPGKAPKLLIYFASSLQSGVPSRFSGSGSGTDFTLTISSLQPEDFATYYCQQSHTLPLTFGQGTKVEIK
// result 0.03

// query Return the recorded Kd value; entry: IFWM3410 (antibody, IgG1, V domains shown, mAb; IgG1/kappa said of the parent and of selected mAbs; also called IFWB3145) VH: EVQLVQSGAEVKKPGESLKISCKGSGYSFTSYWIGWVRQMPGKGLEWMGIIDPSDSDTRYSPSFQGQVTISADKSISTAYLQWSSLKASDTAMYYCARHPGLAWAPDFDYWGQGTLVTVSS VL: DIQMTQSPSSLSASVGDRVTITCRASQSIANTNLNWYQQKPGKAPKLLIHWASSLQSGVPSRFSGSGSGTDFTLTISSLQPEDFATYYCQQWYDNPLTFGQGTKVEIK
// result 0.052

// query Return the recorded Kd value; entry: IFWM3413 (antibody, IgG1, V domains shown, mAb; IgG1/kappa said of the parent and of selected mAbs; also called IFWB3148) VH: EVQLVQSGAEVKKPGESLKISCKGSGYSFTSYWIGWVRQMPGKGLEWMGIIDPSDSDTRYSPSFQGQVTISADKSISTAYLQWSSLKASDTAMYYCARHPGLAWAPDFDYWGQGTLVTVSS VL: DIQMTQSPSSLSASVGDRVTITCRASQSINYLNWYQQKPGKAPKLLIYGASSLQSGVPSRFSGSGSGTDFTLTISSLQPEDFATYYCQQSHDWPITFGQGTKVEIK
// result 0.085
